A collection of compounds and their measured C3GnT activity (%)
testedSystem: human recombinant core 3 β1,3-GlcNAc-transferase (C3GnT) (Homo sapiens, UniProt Q6ZMB0)
Sequence (Q6ZMB0 32-384 limits assumed): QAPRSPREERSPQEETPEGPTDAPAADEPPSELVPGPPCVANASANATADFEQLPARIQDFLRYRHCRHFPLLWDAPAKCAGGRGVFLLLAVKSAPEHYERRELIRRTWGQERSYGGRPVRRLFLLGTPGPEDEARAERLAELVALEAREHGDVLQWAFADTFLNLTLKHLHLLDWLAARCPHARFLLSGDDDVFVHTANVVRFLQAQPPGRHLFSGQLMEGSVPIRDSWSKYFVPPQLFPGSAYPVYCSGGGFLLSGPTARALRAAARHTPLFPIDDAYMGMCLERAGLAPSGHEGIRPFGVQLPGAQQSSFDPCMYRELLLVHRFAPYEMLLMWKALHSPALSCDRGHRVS
methodDescription: C3GnT glycosyltransferase assay
Type: biochemical
experimentalConditions: acceptor substrate 0.5 mM; 0.5 mM GalNAcα-Bn set to 100%

# smilesCode, testedSystem, unitsOfMeasure, limitSign, C3GnT activity (%)
records = [
    ("CC(=O)N[C@H]1[C@@H](OCc2ccccc2)O[C@H](C)[C@H](O)[C@@H]1O[C@@H]1O[C@H](CO)[C@H](O)[C@H](O)[C@H]1O", "human recombinant core 3 β1,3-GlcNAc-transferase (C3GnT) (Homo sapiens, UniProt Q6ZMB0)", "%", "<", 1),
    ("CCC(=O)N[C@H]1[C@@H](OCc2ccccc2)O[C@H](CO)[C@H](O)[C@@H]1O", "human recombinant core 3 β1,3-GlcNAc-transferase (C3GnT) (Homo sapiens, UniProt Q6ZMB0)", "%", "=", 62),
    ("CC(=O)N[C@H]1[C@@H](OCc2ccccc2)O[C@H](CO[C@@H]2O[C@H](CO)[C@@H](F)[C@H](O)[C@H]2NC(C)=O)[C@H](O)[C@@H]1O", "human recombinant core 3 β1,3-GlcNAc-transferase (C3GnT) (Homo sapiens, UniProt Q6ZMB0)", "%", "<", 1),
    ("CC(=O)N[C@H]1[C@@H](Oc2ccc([N+](=O)[O-])cc2)O[C@H](CO)[C@H](O)[C@@H]1O", "human recombinant core 3 β1,3-GlcNAc-transferase (C3GnT) (Homo sapiens, UniProt Q6ZMB0)", "%", "=", 88),
    ("CCCC(=O)N[C@H]1[C@@H](OCc2ccccc2)O[C@H](CO)[C@H](O)[C@@H]1O", "human recombinant core 3 β1,3-GlcNAc-transferase (C3GnT) (Homo sapiens, UniProt Q6ZMB0)", "%", "<", 1),
    ("CC(=O)N[C@H]1[C@@H](Oc2ccccc2)O[C@H](CO)[C@H](O)[C@@H]1O", "human recombinant core 3 β1,3-GlcNAc-transferase (C3GnT) (Homo sapiens, UniProt Q6ZMB0)", "%", "=", 37),
]

====

testedSystem: human recombinant core 2/4 β1,6-GlcNAc-transferase (C2GnT2) (Homo sapiens, UniProt O95395)
Sequence (O95395 27-438): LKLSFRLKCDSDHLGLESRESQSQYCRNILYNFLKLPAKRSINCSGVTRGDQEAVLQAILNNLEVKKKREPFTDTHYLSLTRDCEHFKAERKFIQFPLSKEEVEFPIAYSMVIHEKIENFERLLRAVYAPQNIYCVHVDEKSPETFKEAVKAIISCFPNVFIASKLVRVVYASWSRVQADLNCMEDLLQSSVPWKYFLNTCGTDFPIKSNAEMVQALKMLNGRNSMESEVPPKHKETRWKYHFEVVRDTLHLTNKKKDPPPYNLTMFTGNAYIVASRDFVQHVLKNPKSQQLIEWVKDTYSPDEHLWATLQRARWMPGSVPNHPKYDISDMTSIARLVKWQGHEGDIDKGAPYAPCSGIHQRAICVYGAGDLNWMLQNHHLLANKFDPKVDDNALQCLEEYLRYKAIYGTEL
Assay type: biochemical
experimentalConditions: acceptor substrate 0.5 mM; 0.5 mM Galβ1–3GalNAcα-pnp set to 100%
A collection of molecules and their measured C2GnT2 activity (%)

# molecule, testedSystem, C2GnT2 activity (%)
rows = [
    ("CC(=O)N[C@H]1[C@@H](OCc2ccccc2)O[C@H](CO)[C@H](O)[C@@H]1O[C@@H]1O[C@H](CO)[C@H](F)[C@H](O)[C@H]1O", "human recombinant core 2/4 β1,6-GlcNAc-transferase (C2GnT2) (Homo sapiens, UniProt O95395)", "<1%"),
    ("CC(=O)N[C@H]1[C@H](O[C@H]2[C@@H](O)[C@@H](CO)O[C@H](Oc3ccc([N+](=O)[O-])cc3)[C@@H]2NC(C)=O)O[C@H](CO)[C@@H](O)[C@@H]1O [GlcNAcβ1–3GalNAcα-pnp, reference compound]", "human recombinant core 2/4 β1,6-GlcNAc-transferase (C2GnT2) (Homo sapiens, UniProt O95395)", "32%"),
    ("CO[C@@H]1O[C@H](CO)[C@H](O)[C@H](O[C@@H]2O[C@H](CO)[C@@H](O)[C@H](O)[C@H]2NC(C)=O)[C@H]1O", "human recombinant core 2/4 β1,6-GlcNAc-transferase (C2GnT2) (Homo sapiens, UniProt O95395)", "<1%"),
    ("CCCC(=O)N[C@H]1[C@@H](OCc2ccccc2)O[C@H](CO)[C@H](O)[C@@H]1O", "human recombinant core 2/4 β1,6-GlcNAc-transferase (C2GnT2) (Homo sapiens, UniProt O95395)", "<1%"),
    ("CC(=O)N[C@@H]1C[C@@H](O)[C@@H](CO)O[C@@H]1OCc1ccccc1", "human recombinant core 2/4 β1,6-GlcNAc-transferase (C2GnT2) (Homo sapiens, UniProt O95395)", "<1%"),
    ("COC[C@H]1O[C@H](OCc2ccccc2)[C@H](NC(C)=O)[C@@H](O[C@@H]2O[C@H](CO)[C@H](O)[C@H](O)[C@H]2O)[C@H]1O", "human recombinant core 2/4 β1,6-GlcNAc-transferase (C2GnT2) (Homo sapiens, UniProt O95395)", "<1%"),
    ("CC(=O)N[C@H]1[C@@H](OCc2ccccc2)O[C@H](C)[C@H](O)[C@@H]1O[C@@H]1O[C@H](CO)[C@H](O)[C@H](O)[C@H]1O", "human recombinant core 2/4 β1,6-GlcNAc-transferase (C2GnT2) (Homo sapiens, UniProt O95395)", "<1%"),
    ("CC(=O)N[C@H]1[C@@H](OCc2ccccc2)O[C@H](CO)[C@H](O)[C@@H]1O [GalNAcα-Bn, reference compound]", "human recombinant core 2/4 β1,6-GlcNAc-transferase (C2GnT2) (Homo sapiens, UniProt O95395)", "<1%"),
    ("CC(=O)N[C@H]1[C@@H](OCc2ccccc2)O[C@H](CO)[C@H](O)[C@@H]1O[C@@H]1O[C@H](CO)C[C@H](O)[C@H]1O", "human recombinant core 2/4 β1,6-GlcNAc-transferase (C2GnT2) (Homo sapiens, UniProt O95395)", "<1%"),
    ("CO[C@H]1O[C@H](CO)[C@H](O)[C@H](O[C@@H]2O[C@H](CO)[C@H](O)[C@H](O)[C@H]2O[C@@H]2O[C@@H](C)[C@@H](O)[C@@H](O)[C@@H]2O)[C@H]1NC(C)=O", "human recombinant core 2/4 β1,6-GlcNAc-transferase (C2GnT2) (Homo sapiens, UniProt O95395)", "<1%"),
    ("CC(=O)N[C@H]1[C@@H](OCc2ccccc2)O[C@H](CO)[C@H](O)[C@@H]1O[C@@H]1O[C@H](CO)[C@H](O)[C@H](O)[C@H]1O", "human recombinant core 2/4 β1,6-GlcNAc-transferase (C2GnT2) (Homo sapiens, UniProt O95395)", "35%"),
]

====

testedSystem: human recombinant core 1 β1,3-Gal-transferase (C1GalT) (Homo sapiens)
Sequence (Q9NS00 30-363 limits assumed): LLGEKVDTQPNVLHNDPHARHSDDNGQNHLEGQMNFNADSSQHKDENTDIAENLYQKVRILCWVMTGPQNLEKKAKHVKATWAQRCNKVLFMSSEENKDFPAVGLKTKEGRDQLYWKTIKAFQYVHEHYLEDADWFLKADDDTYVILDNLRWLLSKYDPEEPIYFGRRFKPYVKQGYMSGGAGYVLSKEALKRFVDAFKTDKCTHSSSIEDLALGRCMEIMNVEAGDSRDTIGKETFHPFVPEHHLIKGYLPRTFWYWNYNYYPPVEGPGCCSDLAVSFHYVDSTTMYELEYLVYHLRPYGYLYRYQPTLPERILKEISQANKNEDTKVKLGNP
methodDescription: C1GalT glycosyltransferase assay
Format: biochemical
experimentalConditions: acceptor substrate 0.5 mM; 0.5 mM GalNAcα-Bn set to 100%

# substance, testedSystem, unitsOfMeasure, limitSign, C1GalT activity (%)
data = [
    ("TTTVTP-(GalNAcα)TPTG", "human recombinant core 1 β1,3-Gal-transferase (C1GalT) (Homo sapiens)", "%", "=", 259),
    ("TE-(GalNAcα)TTSHSTPG", "human recombinant core 1 β1,3-Gal-transferase (C1GalT) (Homo sapiens)", "%", "=", 373),
    ("TET-(GalNAcα)TSHSTPG", "human recombinant core 1 β1,3-Gal-transferase (C1GalT) (Homo sapiens)", "%", "=", 210),
    ("AHGVT-(GalNAcα)SAPDTRPAPGSTAPPA", "human recombinant core 1 β1,3-Gal-transferase (C1GalT) (Homo sapiens)", "%", "=", 39),
    ("TE-(GlcNAcβ1–6GalNAcα)TTSHSTPG", "human recombinant core 1 β1,3-Gal-transferase (C1GalT) (Homo sapiens)", "%", "<", 1),
    ("TTTV-(GalNAcα)TPTPTG", "human recombinant core 1 β1,3-Gal-transferase (C1GalT) (Homo sapiens)", "%", "=", 270),
    ("Ac-GHA-(GalNAcα)TSLPVTG-NH2", "human recombinant core 1 β1,3-Gal-transferase (C1GalT) (Homo sapiens)", "%", "=", 564),
    ("T-(GalNAcα)TTVTPTPTG", "human recombinant core 1 β1,3-Gal-transferase (C1GalT) (Homo sapiens)", "%", "=", 231),
    ("TT-(GalNAcα)TVTPTPTG", "human recombinant core 1 β1,3-Gal-transferase (C1GalT) (Homo sapiens)", "%", "=", 99),
]
